Quick reference: viability at 25 µM of the listed items.
# System: CCRF-CEM
# Assay Text: Anticancer activity against human CCRF-CEM cells assessed as cell viability at 25 uM after 48 hrs by MTT assay
# Assay type: functional
# Condition Details: read-out: Activity
Numbers only here, please. The scale is %.

Example entries begin here.
Compound: C[C@H](O)CCn1nc2c(Br)c(Br)c(Br)c(Br)c2n1
Test Readout: viability at 25 µM
Result: 89
--
Compound: COc1cccc(C(O)CCn2nc3c(Br)c(Br)c(Br)c(Br)c3n2)c1 (stereo not drawn)
Test Readout: viability at 25 µM
Result: 50

Now turn to the next compound.
The compound OC(CCn1nc2c(Br)c(Br)c(Br)c(Br)c2n1)c1cccc(Br)c1 (stereo not drawn) showed viability at 25 µM equal to 54

====

# Tested on: CCRF-CEM
# Assay Text: Anticancer activity against human CCRF-CEM cells assessed as cell viability at 25 uM after 48 hrs by MTT assay
# Type: functional
# Condition Details: read-out: Activity
Test Readout: viability at 25 µM (%)
Numbers only here, please. The scale is %.

Example entries begin here.
Compound: OCC(O)Cn1nc2c(Br)c(Br)c(Br)c(Br)c2n1 (racemic)
Result: 56
--
Compound: OC(CCn1nc2c(Br)c(Br)c(Br)c(Br)c2n1)c1ccc(F)cc1 (stereo not given)
Result: 88
--
Compound: OC(CCn1nc2c(Br)c(Br)c(Br)c(Br)c2n1)c1cccc(Cl)c1 (stereo not given)
Result: 68
--
Compound: C[C@H](O)Cn1nc2c(Br)c(Br)c(Br)c(Br)c2n1
Result: 92
--
Compound: C[C@@H](O)CCn1nc2c(Br)c(Br)c(Br)c(Br)c2n1
Result: 71

The compound OC(CCn1nc2c(Br)c(Br)c(Br)c(Br)c2n1)c1ccc(Br)cc1 (stereo not given) showed viability at 25 µM equal to 69

The compound CC(O)CCn1nc2c(Br)c(Br)c(Br)c(Br)c2n1 (racemic) showed viability at 25 µM equal to 86

The compound OC(CCn1nc2c(Br)c(Br)c(Br)c(Br)c2n1)c1ccc(Cl)cc1 (stereo not given) showed viability at 25 µM equal to 69

The compound CC(O)Cn1nc2c(Br)c(Br)c(Br)c(Br)c2n1 (racemic) showed viability at 25 µM equal to 78

The compound OC(CCn1nc2c(Br)c(Br)c(Br)c(Br)c2n1)c1ccccc1 (racemic) showed viability at 25 µM equal to 84

====

# Test system: MCF7
# Assay Text: Anticancer activity against human MCF7 cells assessed as cell viability at 12.5 uM after 24 hrs by MTT assay
# Assay type: functional
# Condition Details: MCF7, 24 h, read-out: Activity
Test Readout: viability at 12.5 µM (%)
Numbers only here, please. The scale is %.

Example entries begin here.
Compound: C[C@@H](O)CCn1nc2c(Br)c(Br)c(Br)c(Br)c2n1
Result: 109

Compound: COc1cccc(C(O)CCn2nc3c(Br)c(Br)c(Br)c(Br)c3n2)c1 (centres undefined)
Result: 121

Compound: OC(CCn1nc2c(Br)c(Br)c(Br)c(Br)c2n1)c1ccc(Br)cc1 (centres undefined)
Result: 82

The compound OC(CCn1nc2c(Br)c(Br)c(Br)c(Br)c2n1)c1ccc(F)cc1 (centres undefined) showed viability at 12.5 µM equal to 116
